Reference for the values: ChEMBL document CHEMBL1145690

Test system: Plasmodium falciparum
Assay: Antimalarial activity against Plasmodium falciparum D6 by [3H]hypoxanthine uptake relative to gedunin
Format: functional
The following compounds are listed with their measured Activity values.

compound	unit_spec	sign	Activity
C[C@@H]1CC[C@H]2[C@@H](C)C(=O)O[C@@H]3O[C@@]4(C)CC[C@@H]1[C@]32OO4	%	=	2170
CC(=O)O[C@@H]1C[C@H]2C(C)(C)C(=O)C=C[C@]2(C)[C@H]2CC[C@@]3(C)[C@H](c4coc(C(C)=O)c4)OC(=O)[C@H]4O[C@]43[C@@]21C	%	=	4.69
CC(=O)O[C@@H]1C[C@H]2C(C)(C)C(=O)[C@@H]3O[C@@H]3[C@]2(C)[C@H]2CC[C@@]3(C)[C@H](c4ccoc4)OC(=O)[C@H]4O[C@]43[C@@]21C	%	=	0.93
CCOC(=O)[C@H]1[C@@H](OC(C)=O)[C@@H]2[C@@]3(C)C=CC(=O)[C@@](C)(C(=O)OC)C3=CC(=O)[C@@]2(C)[C@@]23O[C@@H]2C[C@@H](c2ccoc2)[C@]13C	%	=	22.6
CCN(CC)CCCC(C)Nc1ccnc2cc(Cl)ccc12 (centres undefined)	%	=	3000
CC(=O)O[C@@H]1C[C@H]2C(C)(C)C(=O)C=C[C@]2(C)[C@H]2CC[C@@]3(C)[C@H](c4ccoc4C(C)=O)OC(=O)[C@H]4O[C@]43[C@@]21C	%	=	29.38
OC(c1cc(C(F)(F)F)nc2c(C(F)(F)F)cccc12)C1CCCCN1 (centres undefined)	%	=	521
CC(=O)O[C@@H]1C[C@H]2C(C)(C)[C@@H](O)CC[C@]2(C)[C@H]2CC[C@@]3(C)[C@H](c4ccoc4)OC(=O)[C@H]4O[C@]43[C@@]21C [beta-DIHYDROGEDUNOL]	%	=	0.93
CC(=O)O[C@@H]1C[C@H]2C(C)(C)C(=O)C=C[C@]2(C)[C@H]2CC[C@@]3(C)[C@H](C4CCOC4)OC(=O)[C@H]4O[C@]43[C@@]21C (some centres undefined) [TETRAHYDROGEDUNIN]	%	=	1.56
CC(=O)O[C@@H]1C[C@H]2C(C)(C)C(=O)CC[C@]2(C)[C@H]2CC[C@@]3(C)[C@H](c4ccoc4)OC(=O)[C@H]4O[C@]43[C@@]21C [DIHYDROGEDUNIN]	%	<	0.39
CC(=O)O[C@@H]1C[C@H]2C(C)(C)C(=O)CC[C@]2(C)[C@H]2CC[C@@]3(C)[C@H](C4CCOC4)OC(=O)[C@H]4O[C@]43[C@@]21C (some centres undefined) [HEXAHYDROGEDUNIN]	%	=	0.39
CC1(C)C(=O)C=C[C@]2(C)[C@H]3CC[C@@]4(C)[C@H](c5ccoc5)OC(=O)[C@H]5O[C@]54[C@]3(C)[C@H](O)C[C@@H]12	%	=	1.5
C=C[C@H]1CN2CC[C@H]1C[C@H]2[C@H](O)c1ccnc2ccc(OC)cc12	%	=	264
CC1(C)C(=O)C=C[C@]2(C)[C@H]3CC[C@@]4(C)[C@H](c5ccoc5)OC(=O)[C@H]5O[C@]54[C@]3(C)C(=O)C[C@@H]12	%	<	0.39
